- tested system: Tyrosine-protein kinase JAK1 (Homo sapiens)
- Sequence (P23458 whole entry): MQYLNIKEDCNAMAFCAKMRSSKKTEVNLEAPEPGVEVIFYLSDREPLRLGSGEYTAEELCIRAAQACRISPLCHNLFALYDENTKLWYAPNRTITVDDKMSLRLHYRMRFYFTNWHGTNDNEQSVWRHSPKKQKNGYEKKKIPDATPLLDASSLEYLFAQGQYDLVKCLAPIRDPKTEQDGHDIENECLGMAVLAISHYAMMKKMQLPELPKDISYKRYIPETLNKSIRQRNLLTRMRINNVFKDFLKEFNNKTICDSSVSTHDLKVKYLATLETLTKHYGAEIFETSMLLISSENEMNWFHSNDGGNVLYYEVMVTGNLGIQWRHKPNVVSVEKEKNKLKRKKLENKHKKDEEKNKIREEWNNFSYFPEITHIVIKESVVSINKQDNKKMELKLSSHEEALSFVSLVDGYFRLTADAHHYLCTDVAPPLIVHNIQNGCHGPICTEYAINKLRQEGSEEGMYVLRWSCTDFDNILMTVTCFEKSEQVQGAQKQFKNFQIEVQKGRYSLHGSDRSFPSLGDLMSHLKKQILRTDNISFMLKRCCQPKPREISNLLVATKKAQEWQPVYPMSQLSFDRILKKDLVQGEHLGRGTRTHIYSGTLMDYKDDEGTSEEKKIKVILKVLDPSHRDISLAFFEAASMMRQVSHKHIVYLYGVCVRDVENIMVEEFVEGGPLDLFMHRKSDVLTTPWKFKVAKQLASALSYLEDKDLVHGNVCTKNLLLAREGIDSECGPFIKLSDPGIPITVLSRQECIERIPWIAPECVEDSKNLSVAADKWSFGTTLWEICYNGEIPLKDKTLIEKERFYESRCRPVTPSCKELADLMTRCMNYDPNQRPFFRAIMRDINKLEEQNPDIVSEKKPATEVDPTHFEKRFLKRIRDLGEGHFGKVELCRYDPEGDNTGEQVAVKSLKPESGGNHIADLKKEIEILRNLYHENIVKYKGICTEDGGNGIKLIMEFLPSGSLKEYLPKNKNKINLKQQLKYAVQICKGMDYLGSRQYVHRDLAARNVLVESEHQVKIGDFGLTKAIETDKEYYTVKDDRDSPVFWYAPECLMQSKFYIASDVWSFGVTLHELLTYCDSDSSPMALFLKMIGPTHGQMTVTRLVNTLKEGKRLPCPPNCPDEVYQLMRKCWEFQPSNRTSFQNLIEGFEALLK
- assay text: Selectivity interaction (NanoBRET assay (HEK293T cells)) EUB0000312b JAK1@kinase 1
observable: IC50

- Cc1cnc(-c2cc(Cl)ccc2F)cc1-n1c(=O)n(CC(N)=O)c2cnccc21: > 20 µM

###

- tested system: UniProtKB P08631
- Sequence (P08631 whole entry): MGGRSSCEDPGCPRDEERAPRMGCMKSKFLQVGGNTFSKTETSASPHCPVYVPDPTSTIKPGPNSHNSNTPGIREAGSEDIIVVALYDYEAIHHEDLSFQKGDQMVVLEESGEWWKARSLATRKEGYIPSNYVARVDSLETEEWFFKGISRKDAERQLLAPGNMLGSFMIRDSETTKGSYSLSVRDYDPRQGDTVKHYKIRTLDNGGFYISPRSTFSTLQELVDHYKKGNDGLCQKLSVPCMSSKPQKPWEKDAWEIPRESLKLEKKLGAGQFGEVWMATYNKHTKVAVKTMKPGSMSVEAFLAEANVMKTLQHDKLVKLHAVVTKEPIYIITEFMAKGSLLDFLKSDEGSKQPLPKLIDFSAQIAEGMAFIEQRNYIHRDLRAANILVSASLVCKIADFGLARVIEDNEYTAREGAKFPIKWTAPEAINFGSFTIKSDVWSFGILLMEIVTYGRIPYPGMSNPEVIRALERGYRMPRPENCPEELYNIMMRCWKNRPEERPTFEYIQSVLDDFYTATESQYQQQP
- assay text: Selectivity interaction (Z’-LYTE assay) EUB0000638a HCK
pIC50: −log10 of the molar value.
observable: pIC50

- CC#CC(=O)N1CCC[C@H]1c1nc(-c2ccc(C(=O)Nc3ccccn3)cc2)c2c(N)nccn12 [ACALABRUTINIB]: < 5.00

###

- tested system: Alpha-2C adrenergic receptor (Homo sapiens, UniProt P18825)
- assay text: Selectivity interaction (GPCR panel (PDSP screen)) EUB0000316b ADRA2C
pKi: −log10 of the molar value.
observable: pKi

- CC(=O)c1c(NS(C)(=O)=O)c2cc(-c3ccc(Cl)cc3)c(-c3ccc(Cl)cc3Cl)nc2n(C)c1=O [MRL-CB1-NC]: < 5.00

###

- tested system: Neutrophil collagenase (Homo sapiens)
- Sequence (P22894 whole entry): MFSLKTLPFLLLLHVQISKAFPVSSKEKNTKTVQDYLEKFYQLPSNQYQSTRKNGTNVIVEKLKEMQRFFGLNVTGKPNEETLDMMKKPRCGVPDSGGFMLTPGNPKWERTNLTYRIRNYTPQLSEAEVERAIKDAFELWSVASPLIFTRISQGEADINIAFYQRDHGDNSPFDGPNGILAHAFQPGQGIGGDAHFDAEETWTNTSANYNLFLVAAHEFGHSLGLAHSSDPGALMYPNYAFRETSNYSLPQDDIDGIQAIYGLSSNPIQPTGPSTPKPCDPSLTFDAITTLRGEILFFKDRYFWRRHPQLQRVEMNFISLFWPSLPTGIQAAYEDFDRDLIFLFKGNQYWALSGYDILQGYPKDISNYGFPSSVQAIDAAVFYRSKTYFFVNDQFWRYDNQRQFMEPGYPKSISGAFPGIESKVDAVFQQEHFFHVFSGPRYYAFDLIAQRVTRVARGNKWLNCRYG
- assay text: Selectivity interaction (MMPs panel (Panlabs panel, Bayer)) EUB0000725a MMP8
pIC50: −log10 of the molar value.
observable: pIC50

• O=C(O)[C@@H]1[C@@H](Cn2nnc3ccccc3c2=O)CC[C@H]1C(=O)c1ccc(OCCC2CCOCC2)cc1 = < 5.00

###

- tested system: Gamma-aminobutyric acid receptor subunit alpha-1 (Homo sapiens)
- Sequence (P14867 whole entry): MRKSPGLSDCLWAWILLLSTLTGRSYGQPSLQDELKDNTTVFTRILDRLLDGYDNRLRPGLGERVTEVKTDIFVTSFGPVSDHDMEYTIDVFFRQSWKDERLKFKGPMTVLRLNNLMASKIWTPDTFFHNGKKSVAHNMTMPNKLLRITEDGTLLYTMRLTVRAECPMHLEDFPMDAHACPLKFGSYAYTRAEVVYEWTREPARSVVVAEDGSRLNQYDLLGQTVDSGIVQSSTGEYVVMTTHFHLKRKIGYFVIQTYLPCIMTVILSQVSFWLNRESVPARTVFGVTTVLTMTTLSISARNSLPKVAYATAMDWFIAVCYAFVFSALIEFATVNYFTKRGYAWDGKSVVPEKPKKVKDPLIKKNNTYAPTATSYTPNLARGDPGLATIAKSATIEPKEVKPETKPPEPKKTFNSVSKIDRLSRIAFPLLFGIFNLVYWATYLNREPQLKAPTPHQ
- assay text: Selectivity interaction (GPCR panel (PDSP screen)) EUB0000547a GABRA1
pKi: −log10 of the molar value.
observable: pKi

• CCC(=N\O)/C(C)=C/c1ccc(F)c(C)c1 = 5.43

###

- tested system: Adenosine receptor A2b (Homo sapiens, UniProt P29275)
- Sequence (P29275 whole entry): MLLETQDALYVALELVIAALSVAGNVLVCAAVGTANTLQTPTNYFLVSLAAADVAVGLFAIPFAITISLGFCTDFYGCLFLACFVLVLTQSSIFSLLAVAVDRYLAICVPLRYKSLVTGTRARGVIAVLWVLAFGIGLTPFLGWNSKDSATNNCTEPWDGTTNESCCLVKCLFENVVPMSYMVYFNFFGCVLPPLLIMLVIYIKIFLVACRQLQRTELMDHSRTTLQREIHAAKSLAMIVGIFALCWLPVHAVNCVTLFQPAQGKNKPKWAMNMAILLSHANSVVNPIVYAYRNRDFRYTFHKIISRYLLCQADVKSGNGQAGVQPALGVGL
- assay text: Selectivity interaction (Enzyme panel (ion channels, GPCRs, other targets)) EUB0000196bCl ADORA2B
observable: Ki (nM)

• O=C([C@@H](Cc1cccc(C(F)(F)F)c1)NS(=O)(=O)c1cc(F)c2c(c1)CCNC2)N1CCCC1 = 1300

###

- tested system: Matrix metalloproteinase-9 (Homo sapiens, UniProt P14780)
- Sequence (P14780 whole entry): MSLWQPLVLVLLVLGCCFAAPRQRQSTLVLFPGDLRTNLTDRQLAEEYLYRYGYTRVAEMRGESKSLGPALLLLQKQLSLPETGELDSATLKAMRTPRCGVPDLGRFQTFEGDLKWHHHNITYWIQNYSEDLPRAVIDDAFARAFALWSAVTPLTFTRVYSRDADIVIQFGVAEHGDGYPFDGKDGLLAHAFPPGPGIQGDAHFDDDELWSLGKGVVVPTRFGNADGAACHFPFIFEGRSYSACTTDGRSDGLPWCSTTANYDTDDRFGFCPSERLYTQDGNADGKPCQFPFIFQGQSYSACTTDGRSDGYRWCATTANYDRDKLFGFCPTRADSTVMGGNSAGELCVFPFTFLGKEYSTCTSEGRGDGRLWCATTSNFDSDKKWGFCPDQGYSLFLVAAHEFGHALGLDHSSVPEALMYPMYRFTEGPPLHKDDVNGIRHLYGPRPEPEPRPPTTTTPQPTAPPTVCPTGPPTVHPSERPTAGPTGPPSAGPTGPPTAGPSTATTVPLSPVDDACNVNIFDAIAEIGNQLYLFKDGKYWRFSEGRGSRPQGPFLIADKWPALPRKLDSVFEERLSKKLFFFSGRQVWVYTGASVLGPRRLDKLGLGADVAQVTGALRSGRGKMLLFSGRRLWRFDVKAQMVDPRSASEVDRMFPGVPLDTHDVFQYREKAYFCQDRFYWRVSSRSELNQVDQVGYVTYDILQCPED
- assay text: Selectivity interaction (Lead profiling screen (Eurofins, enzymes, transporters, GPCRs, ion chanels)) EUB0000728a MMP9
observable: IC50

• O=C(O)[C@H]1[C@H](Cn2nnc3ccccc3c2=O)CC[C@@H]1C(=O)c1ccc(OCCC2CCOCC2)cc1 = 460 nM

###

- tested system: Cyclin-G-associated kinase (Homo sapiens, UniProt O14976)
- Sequence (O14976 whole entry): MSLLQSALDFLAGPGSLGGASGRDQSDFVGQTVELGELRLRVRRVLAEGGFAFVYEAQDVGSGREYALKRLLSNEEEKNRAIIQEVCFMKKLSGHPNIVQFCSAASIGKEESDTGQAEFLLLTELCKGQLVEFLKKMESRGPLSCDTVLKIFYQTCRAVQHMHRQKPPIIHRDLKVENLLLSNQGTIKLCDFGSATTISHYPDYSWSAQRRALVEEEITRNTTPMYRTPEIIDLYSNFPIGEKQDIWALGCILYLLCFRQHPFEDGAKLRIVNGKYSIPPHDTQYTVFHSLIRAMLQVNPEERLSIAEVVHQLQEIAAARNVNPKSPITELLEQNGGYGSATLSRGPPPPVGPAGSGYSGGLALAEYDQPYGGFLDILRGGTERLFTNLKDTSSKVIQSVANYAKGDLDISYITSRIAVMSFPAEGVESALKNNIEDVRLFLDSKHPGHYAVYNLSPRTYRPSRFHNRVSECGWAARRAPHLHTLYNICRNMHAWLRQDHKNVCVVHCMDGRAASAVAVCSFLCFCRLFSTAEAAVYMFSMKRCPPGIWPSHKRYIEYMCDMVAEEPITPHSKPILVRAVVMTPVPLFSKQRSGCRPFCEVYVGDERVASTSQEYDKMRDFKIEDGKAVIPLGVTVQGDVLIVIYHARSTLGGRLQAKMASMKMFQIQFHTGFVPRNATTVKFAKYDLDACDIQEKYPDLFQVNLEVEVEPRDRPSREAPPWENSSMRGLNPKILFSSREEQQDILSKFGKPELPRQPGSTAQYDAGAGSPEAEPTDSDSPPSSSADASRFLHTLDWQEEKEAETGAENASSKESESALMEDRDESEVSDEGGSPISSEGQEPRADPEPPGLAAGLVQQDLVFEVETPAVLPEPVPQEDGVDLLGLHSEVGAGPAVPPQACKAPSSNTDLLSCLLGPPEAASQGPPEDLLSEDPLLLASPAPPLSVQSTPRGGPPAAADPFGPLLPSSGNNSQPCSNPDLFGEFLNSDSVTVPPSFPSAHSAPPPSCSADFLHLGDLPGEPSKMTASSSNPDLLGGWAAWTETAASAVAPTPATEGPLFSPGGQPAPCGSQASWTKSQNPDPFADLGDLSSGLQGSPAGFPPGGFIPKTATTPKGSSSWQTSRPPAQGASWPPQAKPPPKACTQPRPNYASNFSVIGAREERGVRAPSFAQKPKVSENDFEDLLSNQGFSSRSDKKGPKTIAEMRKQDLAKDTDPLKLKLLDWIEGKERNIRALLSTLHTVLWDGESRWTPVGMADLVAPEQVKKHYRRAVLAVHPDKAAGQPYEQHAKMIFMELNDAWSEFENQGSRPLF
- assay text: Selectivity interaction (Enzymatic assay) EUB0000608a GAK
observable: IC50 (nM)

- CCOc1cc(N2CCC(O)CC2)ccc1Nc1ncc2c(n1)N(C1CCCC1)CCC(=O)N2C: 140

###

- tested system: Tyrosine-protein kinase Fgr (Homo sapiens, UniProt P09769)
- assay text: Selectivity interaction (Z’-LYTE assay) EUB0000638a FGR
pIC50: −log10 of the molar value.
observable: pIC50

- CC#CC(=O)N1CCC[C@H]1c1nc(-c2ccc(C(=O)Nc3ccccn3)cc2)c2c(N)nccn12: < 5.00

###

- tested system: Alpha-2C adrenergic receptor (Homo sapiens)
- Sequence (P18825 whole entry): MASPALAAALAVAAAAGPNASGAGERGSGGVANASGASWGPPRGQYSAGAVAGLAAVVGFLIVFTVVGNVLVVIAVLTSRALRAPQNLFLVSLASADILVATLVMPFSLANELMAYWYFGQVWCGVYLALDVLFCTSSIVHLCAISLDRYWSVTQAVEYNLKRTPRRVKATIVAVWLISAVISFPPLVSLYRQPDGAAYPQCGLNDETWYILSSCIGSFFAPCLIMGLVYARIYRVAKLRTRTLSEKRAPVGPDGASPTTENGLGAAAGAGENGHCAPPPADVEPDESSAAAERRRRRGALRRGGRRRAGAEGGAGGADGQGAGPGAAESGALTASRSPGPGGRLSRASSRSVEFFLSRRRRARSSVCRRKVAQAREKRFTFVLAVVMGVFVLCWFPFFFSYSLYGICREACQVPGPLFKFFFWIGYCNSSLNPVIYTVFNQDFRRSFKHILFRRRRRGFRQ
- assay text: Selectivity interaction (GPCR panel (PDSP screen)) EUB0000540a ADRA2C
observable: Ki (nM)

- O=C(Nc1cccnn1)N1CC(C/C=C/c2cncc(Oc3ccc(C(F)(F)F)cn3)n2)C1: 596
